Tested on: OVCAR-8 ovarian
Test: NCI tumour cell line growth inhibition, 48 h
Measured TGI accompanies every entry in the list below.

Answered examples (3):
- molecule: "[N-]=[N+]=Nc1ccc(NCCCCCC(=O)ON2C(=O)CCC2=O)c([N+](=O)[O-])c1"
  reported: "> 100 µM"
- molecule: "CC1=NN(c2nc(N)nc(/C(C#N)=C/c3ccc([N+](=O)[O-])o3)n2)C(C)(C)C1"
  reported: "8.91 µM"
- molecule: "COc1ccc(CN2C(=O)C(Cc3cc(OC)c(OC)c(C)c3OC)NC(=O)/C2=C/c2cc(OC)c(OC)c(C)c2OC)cc1 (centres undefined)"
  reported: "> 100 µM"

Now take the following molecule into account.
Query TGI for COc1ccc(N(C)CN(C)c2nc(N(C)C)nc(N(C)C)n2)cc1
> 100 µM

The measured values listed here are drawn from PubChem BioAssay (NCI).
